Target under test: Jak2 (UniProt O60674)
Sequence (O60674 whole entry, looked up): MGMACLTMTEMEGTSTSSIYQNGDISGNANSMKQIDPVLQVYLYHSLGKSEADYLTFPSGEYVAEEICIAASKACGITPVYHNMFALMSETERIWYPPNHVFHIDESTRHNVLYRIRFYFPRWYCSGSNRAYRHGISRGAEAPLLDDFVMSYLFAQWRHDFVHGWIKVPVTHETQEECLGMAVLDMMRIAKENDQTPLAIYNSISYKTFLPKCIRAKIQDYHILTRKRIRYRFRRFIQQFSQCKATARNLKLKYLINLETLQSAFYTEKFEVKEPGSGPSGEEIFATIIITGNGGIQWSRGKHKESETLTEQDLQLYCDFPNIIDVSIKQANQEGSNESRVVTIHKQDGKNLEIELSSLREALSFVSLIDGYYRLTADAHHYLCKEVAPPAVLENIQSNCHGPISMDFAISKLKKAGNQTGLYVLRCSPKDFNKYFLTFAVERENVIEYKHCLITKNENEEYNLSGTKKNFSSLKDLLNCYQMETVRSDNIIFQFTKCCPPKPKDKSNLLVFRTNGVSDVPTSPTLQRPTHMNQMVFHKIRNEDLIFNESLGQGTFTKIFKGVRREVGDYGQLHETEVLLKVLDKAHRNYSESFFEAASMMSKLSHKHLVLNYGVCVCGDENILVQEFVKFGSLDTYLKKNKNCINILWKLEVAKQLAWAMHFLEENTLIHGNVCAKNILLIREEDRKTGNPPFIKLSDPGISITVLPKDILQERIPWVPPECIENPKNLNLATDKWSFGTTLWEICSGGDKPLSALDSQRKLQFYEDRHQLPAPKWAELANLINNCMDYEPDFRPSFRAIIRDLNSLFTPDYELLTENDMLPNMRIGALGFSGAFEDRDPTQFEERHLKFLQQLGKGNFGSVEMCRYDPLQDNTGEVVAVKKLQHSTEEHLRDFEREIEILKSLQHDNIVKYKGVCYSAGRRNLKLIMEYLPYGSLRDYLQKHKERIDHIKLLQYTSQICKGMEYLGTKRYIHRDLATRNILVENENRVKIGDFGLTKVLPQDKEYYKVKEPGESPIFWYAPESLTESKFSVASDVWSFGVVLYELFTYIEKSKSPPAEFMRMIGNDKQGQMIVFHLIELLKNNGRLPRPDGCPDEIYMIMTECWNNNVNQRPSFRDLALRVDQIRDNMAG
Assay protocol: phosphorylation enrichment, bacterial display (enrichment ratio); higher = better substrate or ligand; peptides without Tyr show the background
Classification scheme (phosphorylation enrichment): c1 (below 0.7), c2 (0.7 to below 0.8), c3 (0.8 or more)

Sequence string | Cat
IYLADYRIMEG [ALOX12B_Y318] | c3
SDPIIYTLENV [ADGRE1_Y534_I539V] | c3
CTTIHKNFMCN [TP53_Y234_Y234K_YF] | c1
QTENKYVSVSG [EIF2AK3_Y565_D566V] | c2
SGDDGYAKDAQ [TENM4_Y1530_K1535Q] | c3
AEFGLYRAMVR [VSX2_Y222_G223R_YF] | c2
QPSPSYDSSRG [TCF12_Y70] | c1
PESIMYWKFTT [NTRK3_Y744_R745W] | c3
YSSLGYPPPEG [ZSWIM4_Y87] | c1
PYYTSYPPSPD [GDAP2_Y491] | c3
WCKPPYFSCAV [MMS22L_Y28] | c3
AALVQYYMEHH [PTPN11_Y80_E76A] | c2

---

Target under test: SHP2-C SH2
Assay protocol: SH2 binding enrichment of the phosphorylated peptide, bacterial display (enrichment ratio); higher = better substrate or ligand; peptides without Tyr show the background

Sequence string | SH2 binding enrichment
IHETTYNSIKK [ACTA1_Y281_M285K] | 1.63
GCVSKYSGVFS [TUBGCP6_Y1624] | 0.906
DKVFTYIFIME [SCN4A_Y1074] | 0.58
LFSINYLHFGD [KDM4C_Y201_E206D_YF] | 1.23
HHFAAYFQQGD [GPI_Y351_R347H] | 0.898
PTTKTYFPRFD [HBA1_Y43_H46R] | 0.91
LTDRGYSFVTT [ACTA1_Y200_E197D] | 6.52
GLRYGYGGLGG [KRTAP20-2_Y15_V17G] | 0.557
RRAVKYLQMVG [AVPR2_Y117_C112R] | 0.695
SSYDIYHLSRE [KIR3DL2_Y253] | 0.816
KKHFSYAWPFY [BRDT_Y291] | 1.46
RQGKDYIGAIP [KDR_Y951_V952I] | 0.646
DNKALYDICFR [TUBB3_Y208_E205K] | 0.641
AGKEEYSAMRD [HRAS_Y64_Q61K] | 0.559
KILGRYFETGS [PAX2_Y72_YF] | 0.845
DRIVNYSRASV [ATP7A_Y1459_I1464V] | 0.706
SVTCTYSAALN [TP53_Y126_P128A] | 0.654
LTYHMYADPNI [SOS1_Y618_F623I] | 1.41
ATARPYSPFII [LRP5_Y1528_R1529S_YF] | 0.75
ASPALYRLDLD [TRIL_Y352] | 0.557
QAKRKYQEASK [FES_Y156] | 0.701
FSAPNCCYRCG [PPP2CA_Y265_Y265C] | 0.529
FSGKAYADEER [CRIM1_Y826] | 0.748
RYVSRYIYNRE [HLA-DQB1_Y62_T60S] | 0.245
LHAAAYWNALA [UQCRC2_Y182_R183W] | 1.24
SGPRRYTMAAL [TTR_Y125_I127M] | 0.505
RFVTRYIFNRE [HLA-DQB1_Y62_YF] | 0.721
KSEFAYEIFDK [MYOM2_Y1024_L1022F] | 0.63
ETKGDYEKILV [ANXA1_Y335] | 0.54
KIITDYFVDMK [MPP4_Y566_V562I_YF] | 0.571
DYGSGYPNDPK [RNASEH2A_Y210] | 0.589
AGIVDYNIIGW [MYH7_Y588] | 0.589
MENFIYESMRF [CYP19A1_Y361_YF] | 0.677
SADIAYNFRHG [PAH_Y166_F161S_YF] | 0.798
NVADHYRVFKP [ATP6V0D2_Y271_G272R_YF] | 0.624
EFISEHCGEII [EZH2_Y641_Y641H] | 0.784
VQVAYYTVMMN [SPATA17_Y84_M86V] | 0.952
GRTNIYNNKKD [SLC26A3_Y520_K521N] | 0.754
KNGSNYVVKGN [KIT_Y823_D820G] | 0.782
KMKGEYYRYLA [YWHAG_Y130_D129E] | 1.16
YEEDSYVERSQ [RET_Y905_K907E] | 0.75
LAAAGYDVEKN [H1-3_Y72] | 0.791
PINEPYGDDMD [JUP_Y693] | 1.05
RPASVYTKRCS [CPT2_Y508] | 0.643
RKKEEYKMALF [F8_Y1990_YF] | 1.21
VLVSQYEKLNA [AMZ2_Y26] | 0.632
SNSAAYSGSVA [PDLIM5_Y382_T381A] | 0.559
LRWREYQRQDY [PRKRIP1_Y90_R87W] | 1.32
KLFFHYDPKLC [INSR_Y457_N458D] | 0.709
IFSGIYFKPES [L2HGDH_Y102_H98Y_YF] | 0.981
KMATAYIRRMS [BCO1_Y264] | 0.497
CTTIHYYYMCN [TP53_Y234_N235Y] | 1.96
AVHPGYGFLSE [PCCA_Y143] | 0.523
ILDEAYVMASV [EGFR_Y764] | 0.632
TTPGPYRSIYF [MPG_Y71] | 6.08
LCRYGYANTSE [SI_Y1233] | 0.85
LPPREYVVVPS [CAPN1_Y494_G492R] | 1.03

---

Target under test: Jak2 (UniProt O60674)
Assay protocol: phosphorylation enrichment, bacterial display (enrichment ratio); higher = better substrate or ligand; peptides without Tyr show the background
Threshold check on phosphorylation enrichment: at or above 0.9 gives 1, strictly below gives 0.

Sequence string | Cat
RHPLDYLRQFP [NARS2_Y138_E137D_YF] | 0
ILDEAYVMASV [EGFR_Y764] | 1
AVHPGYGFLSE [PCCA_Y143] | 0
GMTLSYLFREL [NDUFS8_Y74_P79L] | 0
IRKKFYRAILE [CHD7_Y1218_Q1214R_YF] | 0
RSIGEYDVLRG [PRKDC_Y2936] | 0
SGPRRYTMAAL [TTR_Y125_I127M] | 0
LVPPRYARSEI [PKP2_Y194] | 0
DKVFTYIFIME [SCN4A_Y1074] | 1
GASWRYGSGVS [NEU1_Y242] | 0
RKVLVYDKLNV [ROR2_Y624_N620K] | 0
DFPGIYSGYDD [POLR1C_Y33_N32I] | 1
TLRETYGEMAD [ALB_Y108] | 1
PIFEGYALPHA [ACTA1_Y171_YF] | 0
RMGNLYDIDED [GRIN2A_Y1246] | 1
GPIEVYLCPEE [E2F3_Y349] | 1
CTTFHYNYMCN [TP53_Y234_I232F] | 0
RVSSVYTRSTG [CCR5_Y339_A335V] | 1
GLAELYEFQKK [CKAP5_Y1854_K1857Q_YF] | 0
ESLSSYRESAK [APOC2_Y47_W48R] | 0
CTTIHYYYMCN [TP53_Y234_N235Y] | 1
ATARPYSPFII [LRP5_Y1528_R1529S_YF] | 0
IGKAGYTDKMV [ENO1_Y236_V240M] | 0
KLNNEYLELNY [MME_Y497] | 0
ANLAKYGNPNE [BCHE_Y505_F502L] | 0
SDYSRYARTSI [TERT_Y949_S948R] | 0

---

Target under test: Grb2 SH2 (UniProt P62993)
Sequence (P62993 whole entry, looked up): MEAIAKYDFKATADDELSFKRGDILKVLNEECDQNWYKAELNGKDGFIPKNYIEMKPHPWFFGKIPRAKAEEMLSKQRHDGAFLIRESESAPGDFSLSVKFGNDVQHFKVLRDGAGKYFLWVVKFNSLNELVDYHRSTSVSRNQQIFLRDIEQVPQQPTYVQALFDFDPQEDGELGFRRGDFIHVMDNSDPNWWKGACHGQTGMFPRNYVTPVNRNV
Assay protocol: SH2 binding enrichment of the phosphorylated peptide, bacterial display (enrichment ratio); higher = better substrate or ligand; peptides without Tyr show the background
Please map values of SH2 binding enrichment to classes as shown: low: < 0.8; middle: ≥ 0.8 and < 1; high: ≥ 1

Sequence string | Cat
DYSLKYATDIP [APC_Y1183] | low
EVTQDYGLDPK [FH_Y110_N107T] | low
AALRLYHVSDS [VIL1_Y256_K254R] | low
FADIAYNFHHG [PAH_Y166_R169H_YF] | low
YIRRDYEACKA [BBS4_Y48_K46R] | low
VDTFWYKFLKR [EPM2A_Y86] | middle
KLPYPYDDPFS [GPX2_Y127] | middle
FGVTLYPNSRE [MEP1A_Y472] | middle
FRPPYYHRNCM [HGD_Y334] | high
AFSTVYKGLWI [EGFR_Y727_G724S] | middle
KLFFHYDPKLC [INSR_Y457_N458D] | low
PVDTYYDSTRG [DYNC2H1_Y2231_M2227V] | high
ILGRTYFVNHE [NEDD4_Y627_YF] | middle
FPHVIYARLWR [SMAD4_Y95] | low
MNLLGYRQVRS [CHST4_Y359_H361Q] | low
KPLMPCMRFSR [SMARCE1_Y73_Y73C_YF] | middle
CENCHYPILPL [LCK_Y25_V28L] | high
AVISVYDLVAV [PSEN1_Y256] | high
IITVHYVLEES [RYR2_Y4559_A4556T] | high
HLGNQYVNVMN [SLC3A1_Y461_R456H] | high
FIGCIYLFLTK [GARS1_Y414_R412C_YF] | high
